Attribution: ChEMBL document CHEMBL1125376

- Organism: Canis familiaris
- measurementProtocol: Effect on the transmembrane potential of dog Purkinje fibers paced at a basic cycle length of stimulation of 1000 ms, repolarization time to -60 mV at 3 uM concentration
- Assay type: functional
- conditions: Canis lupus familiaris, Purkinje fiber
property: APD60
Just the number, please, no unit after it.

Sample records with APD60:
| cpdSmiles | property | measuredNumber |
| --- | --- | --- |
| CN(CCN(C)c1nc2ccccc2n1C)C(=O)c1ccc(NS(C)(=O)=O)cc1.Cl | APD60 | 65 |
| CN(CCNS(=O)(=O)c1ccc(NS(C)(=O)=O)cc1)c1nc2ccccc2n1C.Cl | APD60 | 50 |
| Cl.Cn1c(N2CCN(S(=O)(=O)c3ccc(NS(C)(=O)=O)cc3)CC2)nc2ccccc21 | APD60 | 57 |

Now look at this one.
QUERY: For the compound `CN(CCNc1nc2ccccc2n1C)S(=O)(=O)c1ccc(NS(C)(=O)=O)cc1.Cl` , what APD60 is on record?
RESULT: 67
